Source: PubChem BioAssay (NCI)

- System: RPMI-8226 leukemia
- measurement_protocol: NCI tumour cell line growth inhibition, 48 h
measured_attribute: TGI

Enquiry: # query: TGI | item NS(=O)(=O)c1ccc(N=Nc2nc3[nH]c(=O)[nH]c(=O)c3[nH]2)cc1 | system: RPMI-8226 leukemia
Return: > 100 µM

Enquiry: Similarly, O=C(O)CCC(=O)c1ccc[nH]1 ?
Return: > 100 µM

Enquiry: Request: C[N+](CCCl)(CCCl)Cc1cccc2cccc([N+](=O)[O-])c12
Return: > 100 µM

Enquiry: Can you check CC(C)CCN1c2nc(Nc3cc(F)c(O)c(F)c3)ncc2N(C)C(=O)C1C (stereo unspecified) next?
Return: 11.5 µM

Enquiry: Again, but for CCC[CH2][Sn]1([CH2]CCC)[O]N=C(c2ccccc2)C(c2ccccc2)[O]1 (stereo unspecified)
Return: 4.38 µM

Enquiry: Next record, please: O=c1[nH]c2c(nc1NC13CC4CC(CC(C4)C1)C3)c(=O)oc1ccccc12
Return: > 100 µM

Enquiry: Then CNC(=O)N(C)N=NCCCl ?
Return: > 100 µM

Enquiry: Same question for Cc1ccc(NC(=O)C(=O)C(C(=O)c2ccc3ccccc3c2)C2OC(=O)c3ccccc32)cc1C (stereo unspecified) please.
Return: 37.5 µM

Enquiry: Please give the result for CCOc1ccccc1C=C1c2ccccc2C(=O)c2ccccc21 too.
Return: 23.2 µM

Enquiry: And OCC1OC(c2cccc3cc(O)c(O)cc23)CC1O (stereo unspecified) ?
Return: > 100 µM

Enquiry: Field entry: COc1cc(N(CCC#N)CCC#N)ccc1/C(N=Nc1ccc([N+](=O)[O-])cc1)=N/NC(=O)c1cc(Br)ccc1O
Return: > 150 µg/mL

Enquiry: Another compound to check: CCCCCCNC(=O)c1cc(NCc2cc(O)ccc2O)ccc1O
Return: 6.47 µM

Enquiry: Okay, and COc1ccc(C(=O)C(c2ccc(OC)cc2)C2(O)C(=O)Nc3ccc([N+](=O)[O-])cc32)cc1 (stereo unspecified) ?
Return: > 100 µM

Enquiry: Similarly, O=C(Nc1nc2ccc(C(F)(F)F)cc2s1)c1cc(Cl)ccc1O ?
Return: 2 µM

Enquiry: Note, next up: CC(CCC=O)CCOCc1ccccc1 (stereo unspecified)
Return: > 100 µM

Enquiry: O=C(O)c1ccc(N=C(C(=Nc2ccc(C(=O)O)cc2)c2ccccc2)c2ccccc2)cc1 ?
Return: > 100 µM
